Biological target: T1, UNK ZnF1-3 (human, UniProt Q9C0B0 31-174)
T1 sequence: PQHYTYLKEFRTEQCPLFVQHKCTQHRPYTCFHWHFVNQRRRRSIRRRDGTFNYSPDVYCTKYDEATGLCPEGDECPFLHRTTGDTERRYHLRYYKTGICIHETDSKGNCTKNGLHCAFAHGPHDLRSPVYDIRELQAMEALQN
Assay: nsRBNS (natural sequence RNA bind-n-seq); RBNS binding buffer (assumed for nsRBNS): 25 mM Tris pH 7.5, 150 mM KCl, 3 mM MgCl2, 0.01% Triton X-100, 500 ug/ml BSA, 20 U/ml SUPERase-In, 4 C; UNK is unkempt and MSI1 is Musashi-1; names of the RNAs are library labels; protein concentration not given here; high values mean tight binding
In all, about 24,000 sequences were measured (“enrichment r”: median about 0.99, highest 2% from about 3.7 on). This is one part of a sample in which the highest values are shown more often than they occur.
Endpoint name: log10 binding signal (log10 of the value in enrichment R)

{"columns": ["Binder", "log10 binding signal"],
 "data": [
  ["7301359_7301479_2013_3pUTR_ENSMUSG00000024764_ENSMUST00000025675|mouse|control|control (ssRNA) RNA: GGGAGUUCUACAGUCCGACGAUCGACACCCAUGACAGGAAAGCAGUGGUACGCCACUGAAAGGCAUCCCAGGGGUGCCAAGACAGUGGCACGAGUGCCUCAUUGAGGCGGUGAGGGGUGGGGCUCGGGAGAACAGGCAAAGGGCAACAGAGGAUUGAGCAUCA", 0.09],
  ["chr1:182797045:182797046:+_ENSMUSG00000038806_ENSMUST00000038091|mus_hu|FALSE|FALSE (ssRNA) RNA: GGGAGUUCUACAGUCCGACGAUCAGACUCAAGCUAAAUAGAAGAAAGAAAAUAACAGAAAUUAAUUAUAUAAACAAUUGAGAAAAAUAAAACCAAAGGUUGGUUCUUUAAAAGUUAUAUCGUCGGCCAGGCACGGUGGCUCACCAACAGAGGAUUGAGCAUCA", 1.15],
  ["95238312_95238432_61_3pUTR_ENSMUSG00000015522_ENSMUST00000090804|mouse|control|control (ssRNA) RNA: GGGAGUUCUACAGUCCGACGAUCACCCUCGGUGGGAGGGGCAGCCGCCACCGAGCUGGGGGAGGGGAGGGAAGAGCCACUCCGCAGAUUAGGCACCUUACCGCCGCCACCGCUACCGCGGAAUCCAAGAUGGCGGACGCCCACCAACAGAGGAUUGAGCAUCA", -0.02],
  ["chr13:100193180:100193181:-_ENSMUSG00000052727_ENSMUST00000064762|mus_mus|FALSE|FALSE (ssRNA) RNA: GGGAGUUCUACAGUCCGACGAUCAUAAUAUAAAGGCUAAAUAAAUUUAAGUUGGAAAACUGGAAGAUAACUCCAUCUUCUAUGAAAGAAAAGUCAACCAGAGGUCUGGAUUUGGCAAGAAGGCUAGAAAUUGUUUCUCUUCACCAACAGAGGAUUGAGCAUCA", 0.59],
  ["chr17:90989275:90989276:-_ENSMUSG00000024109_ENSMUST00000160844|mus_mus|motif|central (ssRNA) RNA: GGGAGUUCUACAGUCCGACGAUCAGAUGUUGUCUUGAAUUGGAAAAAUAGAUGCAUAGAGGUGUAGGCUUGCAAUGUAGCGGAGGCAACAUAGCUCGAUUUGGUCUUGAAGGUGACAGGAUCUGCGAUGAUGUUCCUGAAUCCCAACAGAGGAUUGAGCAUCA", 0.08],
  ["chr4:144460044:144460045:+_ENSG00000153147_ENST00000283131|hu_mus|hu_hu_hu_mus_False|8_68 (ssRNA) RNA: GGGAGUUCUACAGUCCGACGAUCACGGUCCAUAGCCUGAAGAUCAACUUGCGGAUUCCAAUCUGAGUCAUACAAAAUGACUACAUCAGCAGUUGCAAGAUUGAUGCCCAGACCACCAGCACGUGUGCUUAACAUGAAUACAAACAACAGAGGAUUGAGCAUCA", -0.03],
  ["chr2:176857141:176857142:-_ENSG00000144320_ENST00000272748|hu_hu|motif|central (ssRNA) RNA: GGGAGUUCUACAGUCCGACGAUCUUUUUGUAAUCUCUGAUUUUUUUCCCUAAAUUCUUCCAAUGCUUGAAUUUCCUUAUCGGUACUUUCUAGAACUUCUACAGUUGAAGGUUUUGUCCUCCAUCGAGAAAAUAAUCCACCCAUCAACAGAGGAUUGAGCAUCA", -0.18]
]}
